Quick reference for % ID Kidney among some compounds
assay: Normal rat biodistribution; format: in vivo; conditions: 2 min post-injection, i.v., male Wistar rats, Mean±SD n=3
EXPERIMENTAL ENDPOINT: % ID Kidney

- COMPOUND: "NCCCCCNS(=O)(=O)c1ccc(C(=O)NCCCNC(=O)c2ccc(NN)nc2)cc1 [Compound 24]"
  EXPERIMENTAL ENDPOINT: "% ID Kidney"
  RESULT: "10.2 ± 3.07 % ID"
- COMPOUND: "CC(CNCc1ccccc1O)(CNCc1ccccc1O)CNC(=O)c1ccc(S(=O)(=O)NCCCCCN)cc1 [Compound 25]"
  EXPERIMENTAL ENDPOINT: "% ID Kidney"
  RESULT: "5.37 ± 1.3 % ID"
- COMPOUND: "CC(=NO)C(C)(C)NCC(C)(CNC(=O)C1CCC(CNC(=O)c2ccc(S(=O)(=O)NCCCCCN)cc2)CC1)CNC(C)(C)C(C)=NO (stereo not shown) [Compound 8]"
  EXPERIMENTAL ENDPOINT: "% ID Kidney"
  RESULT: "4.56 ± 0.29 % ID"
- COMPOUND: "CC(=NO)C(C)(C)NCCN(CCNC(=O)C1CCC(CNC(=O)c2ccc(S(=O)(=O)NCCCCCN)cc2)CC1)CCNC(C)(C)C(C)=NO (stereo not shown) [Compound 17]"
  EXPERIMENTAL ENDPOINT: "% ID Kidney"
  RESULT: "12.3 ± 0.53 % ID"
- COMPOUND: "CC(=NO)C(C)(C)NCCN(CCNC(=O)c1ccc(S(=O)(=O)NCCCCCN)cc1)CCNC(C)(C)C(C)=NO [Compound 16]"
  EXPERIMENTAL ENDPOINT: "% ID Kidney"
  RESULT: "10.55 ± 1.1 % ID"
- COMPOUND: "CC(=NO)C(C)(C)NCC(C)(CNC(=O)CCCCCN)CNC(C)(C)C(C)=NO (stereo not shown) [Compound 4]"
  EXPERIMENTAL ENDPOINT: "% ID Kidney"
  RESULT: "8.34 ± 2.7 % ID"
- COMPOUND: "CC(=NO)C(C)(C)NCC(C)(CNC(=O)c1ccc(S(=O)(=O)NCCCCCN)cc1)CNC(C)(C)C(C)=NO (stereo not shown) [Compound 3]"
  EXPERIMENTAL ENDPOINT: "% ID Kidney"
  RESULT: "5.55 + 1 % ID"

Origin of the recorded values: patent US6897209B2
